Biological target: UniProt Q96RI1
Experiment: Human FXR (NR1H4) Assay (Gal4 promoter driven luciferase reporter, Indigo Bioscience kit)
Details: Human FXR (NR1H4) Assay, potency ranges
Procedure: ASSAYS Human FXR (NR1H4) Assay Determination of a ligand mediated Gal4 promoter driven transactivation to quantify ligand binding mediated activation of FXR. […] The principle application of this reporter assay system is to quantify functional activity of human FXR. […] Luminescence intensity of the reaction is quantified using a plate-reading luminometer, Envision. […] Cells were incubated for additional 22 hours before luciferase activities were measured. […] Read time may be 0.5 second (500 mSec) per well.
METRIC_NAME: EC50

Entry under test: CC[C@H]1[C@@H](O)[C@@H]2[C@H](CC[C@]3(C)[C@@H]([C@H](C)COC(=O)NS(=O)(=O)c4ccc(-c5ccc(OC(F)(F)F)cc5)s4)CC[C@@H]23)[C@@]2(C)CC[C@@H](O)C[C@@H]12 . Its EC50 was 100 to 1000 nM

Entry under test: CC[C@H]1[C@@H](O)[C@@H]2[C@H](CC[C@]3(C)[C@@H]([C@H](C)CCOC(=O)N[C@H]4CCC[C@@H]4O)CC[C@@H]23)[C@@]2(C)CC[C@@H](O)C[C@@H]12 . Its EC50 was 100 to 1000 nM

Entry under test: CC[C@H]1[C@@H](O)[C@@H]2[C@H](CC[C@]3(C)[C@@H]([C@H](C)COC(=O)NS(=O)(=O)c4cnc5ccccc5c4)CC[C@@H]23)[C@@]2(C)CC[C@@H](O)C[C@@H]12 . Its EC50 was < 100 nM

Entry under test: CC[C@H]1[C@@H](O)[C@@H]2[C@H](CC[C@]3(C)[C@@H]([C@H](C)CCOC(=O)NS(=O)(=O)c4ccc5ccsc5c4)CC[C@@H]23)[C@@]2(C)CC[C@@H](O)C[C@@H]12 . Its EC50 was < 100 nM

* * *

biological target: human FXR (NR1H4) (Homo sapiens (Human), UniProt Q96RI1); experiment: Human FXR (NR1H4) Assay (Gal4 promoter driven luciferase reporter, Indigo Bioscience kit); format: cell-based; conditions: Human FXR (NR1H4) Assay, potency ranges
Sequence (Q96RI1 whole entry, the tested form may be a part): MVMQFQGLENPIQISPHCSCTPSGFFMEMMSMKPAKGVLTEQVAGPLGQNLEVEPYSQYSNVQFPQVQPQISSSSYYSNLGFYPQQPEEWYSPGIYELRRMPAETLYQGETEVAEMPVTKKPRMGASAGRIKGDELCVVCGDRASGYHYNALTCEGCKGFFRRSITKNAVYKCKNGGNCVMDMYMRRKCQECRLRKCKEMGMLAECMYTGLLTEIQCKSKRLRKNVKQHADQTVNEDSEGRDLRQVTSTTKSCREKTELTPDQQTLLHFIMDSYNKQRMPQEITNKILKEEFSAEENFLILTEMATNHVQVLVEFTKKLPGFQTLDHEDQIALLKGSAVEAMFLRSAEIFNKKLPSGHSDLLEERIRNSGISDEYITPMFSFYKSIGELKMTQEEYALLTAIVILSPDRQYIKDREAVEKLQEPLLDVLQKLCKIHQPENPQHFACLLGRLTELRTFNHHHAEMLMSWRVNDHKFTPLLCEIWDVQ
pEC50: −log10 of the molar value.
METRIC_NAME: pEC50

Tested on human FXR (NR1H4) (Homo sapiens (Human), UniProt Q96RI1): CC[C@H]1[C@@H](O)[C@@H]2[C@H](CC[C@]3(C)[C@@H]([C@H](C)CCOC(=O)N[C@@H]4CCC[C@@H]4O)CC[C@@H]23)[C@@]2(C)CC[C@@H](O)C[C@@H]12 [Example 206] . Observed pEC50: > 7.00

Tested on human FXR (NR1H4) (Homo sapiens (Human), UniProt Q96RI1): CC[C@H]1[C@@H](O)[C@@H]2[C@H](CC[C@]3(C)[C@@H]([C@H](C)CCOC(=O)NS(=O)(=O)c4cccc(C(F)(F)F)c4)CC[C@@H]23)[C@@]2(C)CC[C@@H](O)C[C@@H]12 [Example 78] . Observed pEC50: 6.00 to 7.00

Tested on human FXR (NR1H4) (Homo sapiens (Human), UniProt Q96RI1): CC[C@H]1[C@@H](O)[C@@H]2[C@H](CC[C@]3(C)[C@@H]([C@H](C)CCCOC(=O)NS(=O)(=O)c4ccc(C(C)(C)C)cc4)CC[C@@H]23)[C@@]2(C)CC[C@@H](O)C[C@@H]12 [Example 111] . Observed pEC50: 6.00 to 7.00

Tested on human FXR (NR1H4) (Homo sapiens (Human), UniProt Q96RI1): CC[C@H]1[C@@H](O)[C@@H]2[C@H](CC[C@]3(C)[C@@H]([C@H](C)CCOC(=O)NS(=O)(=O)c4ccc(OC)c(OC)c4)CC[C@@H]23)[C@@]2(C)CC[C@@H](O)C[C@@H]12 [Example 87] . Observed pEC50: 6.00 to 7.00
